Assay: Inhibition of full-length human FAAH expressed in COS-7 cells assessed as [14C]-labeled oleamide to oleic acid conversion
Type: cell-based
outcome.measure: Ki

* COC(=O)c1cccc(-c2cnc(C(=O)C3Cc4ccc(OCc5ccccc5)cc4C3)o2)n1 (racemic) | > 10 µM
* O=C(c1ncco1)C1CCc2cc(OCc3ccccc3)ccc2C1 (racemic) | > 10 µM
* COC(=O)c1cccc(-c2cnc(C(=O)C3CCc4cc(OCc5ccccc5)ccc4C3)o2)n1 (racemic) | > 10 µM
* O=C(c1ncco1)C1Cc2ccc(OCc3ccccc3)cc2C1 (racemic) | > 0.024 µM

* * *

Target: Fatty-acid amide hydrolase 1 (Rattus norvegicus)
Sequence (P97612 whole entry): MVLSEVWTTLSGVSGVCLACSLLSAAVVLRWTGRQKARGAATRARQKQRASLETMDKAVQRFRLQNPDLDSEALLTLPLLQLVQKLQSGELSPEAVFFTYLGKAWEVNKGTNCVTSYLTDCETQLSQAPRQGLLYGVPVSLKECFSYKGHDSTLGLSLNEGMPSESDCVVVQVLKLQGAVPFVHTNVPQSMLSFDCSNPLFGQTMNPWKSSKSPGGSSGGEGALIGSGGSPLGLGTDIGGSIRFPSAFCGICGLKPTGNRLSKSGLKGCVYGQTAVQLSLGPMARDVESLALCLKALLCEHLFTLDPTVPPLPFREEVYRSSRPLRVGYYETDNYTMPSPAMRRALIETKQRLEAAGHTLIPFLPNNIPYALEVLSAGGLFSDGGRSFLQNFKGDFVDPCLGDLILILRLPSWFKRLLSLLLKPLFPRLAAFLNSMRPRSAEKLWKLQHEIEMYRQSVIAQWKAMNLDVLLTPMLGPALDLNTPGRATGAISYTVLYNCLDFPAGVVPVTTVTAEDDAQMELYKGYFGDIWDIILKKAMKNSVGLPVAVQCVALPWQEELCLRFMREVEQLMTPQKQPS
Experiment: Inhibition of rat FAAH expressed in E. coli assessed as [14C]-labeled oleamide to oleic acid conversion
Binarize Ki at 100 nM; below is Yes, at or above is No.

• O=C(c1ncco1)[C@H]1CCc2cc(-c3ccccc3)ccc2C1 = Yes
• O=C(c1ncco1)[C@H]1CCc2cc(OCc3ccccc3)ccc2C1 = Yes
• O=C(c1ncc(-c2ccccn2)o1)[C@@H]1CCc2cc(Oc3ccccc3)ccc2C1 = No
• O=C(c1ncc(-c2ccccn2)o1)[C@@H]1CCc2cc(OCc3ccccc3)ccc2C1 = No
• COC(=O)c1cnc(C(=O)[C@H]2CCc3cc(OCc4ccccc4)ccc3C2)o1 = Yes
• N#Cc1cnc(C(=O)[C@@H]2CCc3cc(-c4ccccc4)ccc3C2)o1 = Yes
• O=C(c1ncc(-c2ccccn2)o1)[C@H]1Cc2ccc(OCc3ccccc3)cc2C1 = Yes
• COC(=O)c1cccc(-c2cnc(C(=O)[C@H]3CCc4cc(Oc5ccccc5)ccc4C3)o2)n1 = Yes
• COC(=O)c1cccc(-c2cnc(C(=O)[C@@H]3CCc4cc(-c5ccccc5)ccc4C3)o2)n1 = No
• O=C(c1ncc(-c2ccccn2)o1)[C@H]1Cc2ccc(Oc3ccccc3)cc2C1 = Yes
• O=C(c1nnco1)[C@H]1CCc2cc(Oc3ccccc3)ccc2C1 = Yes
• O=C(O)c1cccc(-c2cnc(C(=O)[C@@H]3Cc4ccc(Oc5ccccc5)cc4C3)o2)n1 = No
• COC(=O)c1cccc(-c2cnc(C(=O)C3Cc4ccc(-c5ccccc5)cc4C3)o2)n1 (racemic) = Yes
• O=C(c1ncc(I)o1)[C@@H]1CCc2cc(OCc3ccccc3)ccc2C1 = No
• O=C(c1nnco1)[C@@H]1CCc2cc(Oc3ccccc3)ccc2C1 = Yes
• COC(=O)c1nnc(C(=O)[C@@H]2CCc3cc(Oc4ccccc4)ccc3C2)o1 = Yes
• O=C(c1ncc(I)o1)C1CCc2cc(OCc3ccccc3)ccc2C1 (racemic) = Yes
• O=C(c1ncco1)[C@@H]1CCc2ccccc2C1 = No
• COC(=O)c1cnc(C(=O)[C@@H]2CCc3cc(-c4ccccc4)ccc3C2)o1 = No
• O=C(c1ncco1)[C@@H]1CCc2cc(Oc3ccccc3)ccc2C1 = No
• O=C(c1ncco1)[C@H]1Cc2ccc(Oc3ccccc3)cc2C1 = Yes
• O=C(c1ncco1)[C@@H]1Cc2ccc(Oc3ccccc3)cc2C1 = No
• COC(=O)c1cccc(-c2cnc(C(=O)[C@@H]3Cc4ccc(Oc5ccccc5)cc4C3)o2)n1 = No
• O=C(O)c1cccc(-c2cnc(C(=O)[C@@H]3CCc4cc(-c5ccccc5)ccc4C3)o2)n1 = No
• O=C(c1ncc(-c2ccccn2)o1)[C@@H]1Cc2ccc(Oc3ccccc3)cc2C1 = Yes
• COC(=O)c1cccc(-c2cnc(C(=O)[C@H]3CCc4cc(OCc5ccccc5)ccc4C3)o2)n1 = Yes
• O=C(c1ncco1)[C@H]1CCc2ccccc2C1 = No
• O=C(O)c1cccc(-c2cnc(C(=O)[C@@H]3Cc4ccc(OCc5ccccc5)cc4C3)o2)n1 = No
• O=C(c1ncco1)[C@@H]1CCc2cc(OCc3ccccc3)ccc2C1 = Yes
• O=C(c1ncco1)[C@@H]1Cc2ccc(-c3ccccc3)cc2C1 = No
• O=C(c1ncc(-c2ccccn2)o1)[C@@H]1Cc2ccc(OCc3ccccc3)cc2C1 = No
• COC(=O)c1cnc(C(=O)[C@@H]2CCc3cc(Oc4ccccc4)ccc3C2)o1 = Yes
• COC(=O)c1cccc(-c2cnc(C(=O)[C@@H]3Cc4ccc(OCc5ccccc5)cc4C3)o2)n1 = No
• O=C(c1ncc(-c2ccccn2)o1)[C@H]1Cc2ccc(-c3ccccc3)cc2C1 = Yes
• O=C(c1ncc(-c2ccccn2)o1)[C@H]1CCc2cc(-c3ccccc3)ccc2C1 = Yes
• O=C(O)c1cccc(-c2cnc(C(=O)[C@H]3CCc4cc(-c5ccccc5)ccc4C3)o2)n1 = Yes
• COC(=O)c1cnc(C(=O)[C@@H]2CCc3cc(OCc4ccccc4)ccc3C2)o1 = Yes
• COC(=O)c1cnc(C(=O)[C@H]2CCc3cc(Oc4ccccc4)ccc3C2)o1 = Yes
• O=C(c1ncco1)[C@H]1Cc2ccc(-c3ccccc3)cc2C1 = Yes
